Recorded protein stability index for the following variants
B1: KRT18 (parent)
chain: RAQYDELARKNREELDKYWSQQIE

# Variants of: B1
# Experiment: protein stability index of a GFP-peptide fusion (GPS, HEK-293T) (PSI 1-6); higher = more stable;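 further: lentivirally expressed fusions sorted by FACS into six bins by GFP to DsRed ratio, PSI derived from sequencing read proportions per bin multiplied by bin number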
# Condition context: c terminus: a fixed tail appended
Lab note: record the figure alone, no unit after it.

Solved entries (count: 3):
>>> endpoint_result("E24N")
3.13
>>> endpoint_result("I23H")
2.23
>>> endpoint_result("A2T")
2.52

(Q) Need protein stability index, item D16P
(A) 3.63

(Q) Next record, please: Y18E
(A) 5.17
